Test system: Candida albicans
condition: Concentration 32 ug.mL-1; ASSAY_TEST Inhibition of Fungal Growth; detection method Absorption (OD530)
Description: Antifungal activity against Candida albicans ATCC 90028 (CO-ADD:FG_001); MIC in YNB media using NBS plates, by OD630
Entries with a potency or affinity are not part of this list.
For each entry below, report its Inhibition value.
Numbers only, in %.

Worked cases, Inhibition given:
response.value for Cn1c(=O)c2ccc(C(=O)NC3CCCC3)cc2n2c(SCc3c(F)cccc3Cl)nnc12 (field: Inhibition) = 3.13

Form field Inhibition, entry CC(C)c1nnc2c(SCC(=O)Nc3ccc(Br)cc3)nc3ccccc3n12 : 0.48

Cc1cc2nn(CC(=O)Nc3ccc4c(c3)OCCO4)c(=O)n2c(Nc2ccccc2C)n1 has a reported Inhibition of 7.15

I have 2 compounds here; please give me Inhibition for each one.
1. Cc1ccc(-c2ccc3nn(Cc4nc(-c5ccc(Cl)cc5)no4)c(=O)n3n2)cc1C
2. CC(=O)c1ccc(NC(=O)Cn2nc3c(Sc4ccc(C)cc4C)nccn3c2=O)cc1

**A:**
[1.35, 1.94]

###

System: Klebsiella pneumoniae
condition: Concentration 32 ug.mL-1;; ASSAY_TEST Inhibition of Bacterial Growth; detection method Absorption (OD600); MEDIA CAMHB; plate type 384well; NBS; CORNING #3640; time 18 hr
Description: Antibacterial activity against Klebsiella pneumoniae MDR ATCC 70063 (CO-ADD:GN_003); MIC in CAMBH media using NBS plates, by OD(600)
Results with a measured potency or affinity are listed apart.
assay.readout: Inhibition (%)
Answers are plain numbers, in %.

Entry CCCCc1ccc(NC(=O)Cn2nc3c(SC4CCCCC4)nccn3c2=O)cc1 ; assay system Klebsiella pneumoniae; Inhibition recorded at 1.99

Inhibition of COC(=O)c1ccc(NC(=O)Cn2nc3c4cc(-c5ccc(F)cc5)nn4ccn3c2=O)cc1 , assay on Klebsiella pneumoniae, is 11.64

Hey, Klebsiella pneumoniae data for Cc1cccc(C)c1NC(=O)CSc1nnc2c3cc(-c4ccc(F)cc4)nn3ccn12 : Inhibition came out at -6.3

The molecule O=C(CSc1nnc2c(=O)n(-c3ccc(F)c(F)c3)ccn12)c1c[nH]c2ccccc12 , when measured on Klebsiella pneumoniae, yielded Inhibition of 5.97

The reported Inhibition value, Klebsiella pneumoniae, for CC(C)c1ccc(N(Cc2ccc(Cl)cc2)S(=O)(=O)c2cccn3cnnc23)cc1 reads 9.01

Considering CCOc1ccc(-n2ccn3c(SCC(=O)c4ccc(OC)c(OC)c4)nnc3c2=O)cc1 , its Inhibition with Klebsiella pneumoniae was recorded as 7.92

Given the molecule Cc1cc(C)cc(NC(=O)Cn2nc3ccc(SCc4ccc(Cl)cc4)nn3c2=O)c1 and test system Klebsiella pneumoniae, the measured Inhibition is -2.52

Readout Inhibition for CCc1ccc(N(Cc2ccc(C)cc2)S(=O)(=O)c2cccn3c(C)nnc23)cc1 , test system Klebsiella pneumoniae, was 3.2

// Inhibition (Klebsiella pneumoniae) for Cc1cccc(NC(=O)c2ccc3nnc(SCC(=O)Nc4ccc(Br)cc4)n3c2)c1 = 7.72

Tested system Klebsiella pneumoniae; Inhibition recorded for Cc1ccc(-c2cc3c4nn(CC(=O)Nc5ccc(Cl)cc5)c(=O)n4ccn3n2)cc1C was -7.29

Give measured Inhibition for every item shown.
1. CCCN(C)c1nccn2c(=O)n(CC(=O)Nc3ccc(F)cc3)nc12
2. NC(=O)CSc1nnc2c(=O)n(-c3ccccc3)ccn12
3. Cc1ccc(C)c(Cn2nc3c(=O)n(-c4cccc(Cl)c4C)ccn3c2=O)c1
4. O=C(CSc1nc2ccccc2n2cnnc12)N1CCN(c2ccc(F)cc2)CC1
5. COc1cc(OC)c(NC(=O)Cn2nc3c(SC4CCCCC4)nccn3c2=O)cc1Cl

**A:**
16.44
15.37
3.77
8.82
9.62

Provide reported Inhibition for each item, in the same order as listed.
1. CCOc1ccc(-n2ccn3c(SC(CC)C(=O)Nc4ccc(C(C)C)cc4)nnc3c2=O)cc1 (stereo not given)
2. Cc1oc(-c2ccc(OC(C)C)cc2)nc1CSc1nc2ccccc2n2c(C(C)C)nnc12
3. Cc1cccc(CN(c2cc(C)cc(C)c2)S(=O)(=O)c2cccn3c(C)nnc23)c1

**A:**
[9.42, -1.3, 4.64]

# batch size: 5; output Inhibition per entry
1. CCCCn1c(=O)c2sccc2n2c(=O)n(CC(=O)NC(C)C)nc12
2. CCCn1c(=O)c2sccc2n2c(=O)n(CC(=O)c3ccc(OC)c(OC)c3)nc12
3. O=c1c2sccc2n2c(=O)n(Cc3ccc(F)cc3)nc2n1Cc1cccs1
4. COc1ccccc1NC(=O)Cn1nc2c(SCc3ccccc3)nccn2c1=O
5. O=C(Cn1nc2ccc(SCc3ccc(Cl)cc3)nn2c1=O)Nc1cccc(F)c1

**A:**
1. 11.23
2. 5.35
3. 10.32
4. 0.49
5. -5.89

Consider the following items and state reported Inhibition for each.
1. Cc1c(Cl)cccc1-n1ccn2c(SCC(=O)c3c[nH]c4ccccc34)nnc2c1=O
2. O=C(Cn1nc2c(N3CCN(c4ccccc4)CC3)nccn2c1=O)Nc1ccc2c(c1)OCO2
3. Cc1nnc2c(SCC(=O)Nc3cccc(Br)c3)nc3ccccc3n12
4. O=c1c2nnc(SCc3ccccc3)n2ccn1-c1ccc(Br)cc1
5. COc1ccc(-c2cc3c4nn(CC(=O)Nc5c(C)cc(C)cc5C)c(=O)n4ccn3n2)cc1
6. O=C(Cn1nc2ccc(SCc3ccc(Cl)cc3)nn2c1=O)Nc1ccccc1
7. CCOC(=O)c1ccccc1NC(=O)CSc1nc2ccccc2n2c(C(C)C)nnc12
8. N#Cc1cccc(NC(=O)Cn2nc3c4cc(-c5ccc(Cl)cc5)nn4ccn3c2=O)c1

**A:**
3.37
5.9
10.33
7.85
6.07
9.67
12.78
3.5
